Recorded values, source patent US20240343761A1.

- TGT: human APJ (hAPJ) (Homo sapiens, UniProt P35414)
- Construct: expressed in transfected cells; cell membranes
- Sequence (P35414 1-380): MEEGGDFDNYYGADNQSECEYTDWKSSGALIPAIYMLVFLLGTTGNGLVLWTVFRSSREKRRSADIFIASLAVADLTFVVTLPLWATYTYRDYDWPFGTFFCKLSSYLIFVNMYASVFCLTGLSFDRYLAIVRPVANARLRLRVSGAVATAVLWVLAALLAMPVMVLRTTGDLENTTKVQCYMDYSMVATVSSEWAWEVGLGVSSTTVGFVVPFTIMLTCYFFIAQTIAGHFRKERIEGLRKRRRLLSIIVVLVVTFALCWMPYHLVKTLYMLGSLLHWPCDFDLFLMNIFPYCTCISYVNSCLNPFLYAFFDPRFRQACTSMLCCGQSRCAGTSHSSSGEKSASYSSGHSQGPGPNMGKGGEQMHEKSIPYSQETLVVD
- METHOD_DESCRIPTION: Competitive radioligand binding ([125I][Nle75,Tyr77][Pyr1]-Ape13) on membranes of HEK293 cells stably expressing human APJ
- RUN_PARAMETERS: Ki binding
Numbered stars: 1 amine (or outer) side, 2 acyl side, 3 side chain; on linkers, the order of the positions; unused ones are H or OH. Bridge positions count the residues as written; N and C are the ends. Square brackets hold non-standard residues; d marks the D form. Peptide text beside a SMILES is read from it. * marks the point of attachment. X9 = O=C([C@H](CCCNCCC=[*:3])N[*:1])[*:2]; AllylGly = C=CC[C@H](N)C(=O)O; Nle = CCCC[C@H](N)C(=O)O; Bn = c1ccc(C*)cc1
Listing of entries alongside the reported Ki.

{"COMPOUND": "N=C(N)NCCC[C@@H]1NC(=O)[C@@H](N)CC=CCCNCCC[C@@H](C(=O)N2CCC[C@H]2C(=O)N[C@@H](Cc2ccc(OCc3ccccc3)cc2)C(=O)O)NC1=O [Compound 51, NH2-c[X-R-Orn(N-butenyl)]-P-Tyr(Obn)] (H-[AllylGly]R[X9]PY(Bn)-OH; staple 1-3)", "Ki": "> 10 µM"}

Okay, next one:
IN: Requested read-out Ki, target or system human APJ (hAPJ) (Homo sapiens, UniProt P35414), entry CCCC[C@H](NC(=O)[C@@H]1CCCN1C(=O)CNC(=O)[C@@H]1CC=CC[C@H](N)C(=O)N[C@@H](CCCNC(=N)N)C(=O)N[C@@H](CC(C)C)C(=O)N[C@@H](CO)C(=O)N1)C(=O)O [Compound 31, NH2-c[X-R-L-S-X]c-G-P-Nle] (H-[AllylGly]RLS[AllylGly]GP[Nle]-OH; staple 1-5)
OUT: > 10 µM

----------
- TGT: hAPJ receptor (Homo sapiens, UniProt P35414)
- Construct: expressed in transfected cells; host or cells: HEK293, transient transfection with PEI
- Sequence (P35414 1-380): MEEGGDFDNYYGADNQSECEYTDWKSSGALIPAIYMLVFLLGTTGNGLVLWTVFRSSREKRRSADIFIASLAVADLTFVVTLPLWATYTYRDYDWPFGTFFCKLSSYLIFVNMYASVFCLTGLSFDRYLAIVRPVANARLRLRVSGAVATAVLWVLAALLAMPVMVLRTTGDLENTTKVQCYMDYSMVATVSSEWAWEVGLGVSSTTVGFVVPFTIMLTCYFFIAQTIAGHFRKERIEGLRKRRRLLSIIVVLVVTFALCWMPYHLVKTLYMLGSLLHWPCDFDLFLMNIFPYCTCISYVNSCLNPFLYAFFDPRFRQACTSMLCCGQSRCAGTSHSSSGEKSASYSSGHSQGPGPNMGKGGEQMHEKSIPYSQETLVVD
- METHOD_DESCRIPTION: BRET-based Gαi1 activation assay in HEK293 cells
- Type: cell-based
Bridge positions count the residues as written; N and C are the ends. Square brackets hold non-standard residues; d marks the D form. Peptide text beside a SMILES is read from it. Phe(4-Br) = N[C@@H](Cc1ccc(Br)cc1)C(=O)O; hArg = N=C(N)NCCCC[C@H](N)C(=O)O; pGlu = O=C1CC[C@@H](C(=O)O)N1
Listing of entries alongside the reported EC50.
Write the number in µM without appending the unit.

{"COMPOUND": "CC(C)C[C@@H]1NC(=O)[C@@H]2CCCN2C(=O)[C@@H](NC(=O)[C@H](CO)NC(=O)[C@H](CCCNC(=N)N)NC(=O)[C@H](CCCNC(=N)N)NC(=O)[C@@H]2CCC(=O)N2)CCC(=O)NCCCC[C@@H](C(=O)N[C@@H](CCCNC(=N)N)C(=O)N[C@H](C(=O)N2CCC[C@H]2C(=O)N[C@@H](Cc2ccc(Br)cc2)C(=O)N2CCC[C@H]2C(=O)O)C(C)C)NC(=O)[C@H](Cc2c[nH]cn2)NC1=O [Compound 92, Pyr-R-R-S-[E-P-L-H-K]-R-V-P-4BrF-P] ([pGlu]RRSEPLHKRVP[Phe(4-Br)]P-OH; lactam 5-9)", "RECORDED_NUMBER": 0.016}

Okay, next one:
IN: Record request: EC50 value, item CC(C)C[C@@H]1NC(=O)[C@@H]2CCCN2C(=O)[C@@H](NC(=O)[C@H](CO)NC(=O)[C@H](CCCCNC(=N)N)NC(=O)[C@H](CCCNC(=N)N)NC(=O)[C@@H]2CCC(=O)N2)CCC(=O)NCCCC[C@@H](C(=O)N[C@@H](CCCNC(=N)N)C(=O)N[C@H](C(=O)N2CCC[C@H]2C(=O)N[C@@H](Cc2ccccc2)C(=O)N2CCC[C@H]2C(=O)O)C(C)C)NC(=O)[C@H](Cc2c[nH]cn2)NC1=O [Compound 91, Pyr-R-hR-S-[E-P-L-H-K]-R-V-P-F-P] ([pGlu]R[hArg]SEPLHKRVPFP-OH; lactam 5-9)
OUT: 0.0043
